System: MDA-MB-231
Assay Protocol: NCI tumour cell line growth inhibition, 48 h
The source made the active and inactive calls. Cut-off read from the data, not from the text of the source: active = GI50 up to about 1.1 µM and inactive = higher.
Recorded Metric: GI50

Which GI50 reading was recorded for the molecule C[n+]1c2ccccc2n2c3ccccc3c(NCCc3ccccn3)c(C#N)c21 ?
1.42 µM (inactive)

What do you have for N=C(N)C(/N=N\c1ccccc1)C(=N)N (stereo not given) ?
15.3 µM (inactive)

Also need O=C(O)CCC(=O)C(=O)O , thanks.
> 100 µM (inactive)

What do you have for C=C(C1=CC(=O)C(C)(C)O1)[C@@H]1CC=C([C@@H]2CC[C@H]3[C@@]2(C)CC[C@H]2C(C)(C)C(=O)[C@H](O)C[C@]32C)[C@H](O)O1 ?
2.15 µM (inactive)

// query: COc1cc(O)c2c(=O)cc(-c3ccc(O)cc3O)oc2c1CC=C(C)C
22.1 µM (inactive)

Another molecule to look at: COc1ccc(OC2OC(COC(c3ccccc3)(c3ccc(OC)cc3)c3ccc(OC)cc3)C(O)C(O)C2O)cc1 (stereo not given)
4.6 µM (inactive)

What do you get for Cc1ccc2nc3n(c2c1)C(c1c(F)cccc1F)SC3 (stereo not given) ?
> 100 µM (inactive)

And COC(=O)CN1Cc2cc(C)cc(c2O)CN(CC(=O)OC)Cc2cc(C)cc(c2O)CN(CC(=O)OC)Cc2cc(C)cc(c2O)C1 ?
> 36.8 µM (inactive)

What would you report for N=C(N)N/N=C/c1ccc(O)c(C(=O)O)c1 ?
> 100 µM (inactive)

Then what about the molecule COc1ccc2c(c1)C(N)CC2=O (stereo not given) ?
> 100 µM (inactive)

Can you handle O=C1CSc2nc3ccccc3n2/C=N\N1 next?
> 100 µM (inactive)

Now consider Cc1sc2nc(-c3cc([N+](=O)[O-])c(Cl)cc3Cl)c(/C=N/NC(=N)N)n2c1C .
6.61 µM (inactive)

Please do the same for COC(=O)C(Cc1ccccc1)NP(=O)(O)OCC1OC(n2cc(I)c(=O)[nH]c2=O)CC1O (stereo not given) as well.
> 100 µM (inactive)

Also check C=C1C(=O)OC2/C=C(/C)C(OC(C)=O)CC(O)/C(C)=C\C(OC(=O)/C(C)=C\C)C12 (stereo not given)
> 100 µM (inactive)

Another molecule: Cc1ccccc1NC(=O)Cc1csc(N/N=C2\NC(=O)/C(=C/c3cccc([N+](=O)[O-])c3)S2)n1
21.7 µM (inactive)

Follow-up item: Cn1c(=O)c2nc(CCCCc3nc4c(=O)n(C)c(=S)n(C)c4[nH]3)[nH]c2n(C)c1=S
> 100 µM (inactive)

What do we get for O=c1[nH]n(Cc2ccccc2Cl)c2ccc([N+](=O)[O-])cc12 ?
39.4 µM (inactive)

Follow-up entry: CN/N=C(\C)C(CN(C)C)C(c1ccccc1)c1c(O)c2ccccc2oc1=O (stereo not given)
> 100 µM (inactive)

Next record, please: COc1cc2c(cc1C)NC(=O)/C2=C/c1c(Cl)[nH]c2ccccc12
3.95 µM (inactive)

Also need N#CC1(C#N)C(=O)c2ccncc2C1=O , thanks.
> 100 µM (inactive)
